B1: CLCN6 (parent)
chain: FQSISLRKIQFNFPYFRSDRDKRD

Variants of: B1
Experiment: protein stability index of a GFP-peptide fusion (GPS, HEK-293T) (PSI 1-6); higher = more stable;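 further: lentivirally expressed fusions sorted by FACS into six bins by GFP to DsRed ratio, PSI derived from sequencing read proportions per bin multiplied by bin number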
Conditions: c terminus: a fixed tail appended

Variant Spec: R7Q
protein stability index: 1.62

Variant Spec: L6T
protein stability index: 2.59

Variant Spec: P14F
protein stability index: 1.69

Variant Spec: R20N
protein stability index: 1.72

Variant Spec: D21M
protein stability index: 2.08

Variant Spec: Y15G
protein stability index: 2.68

Variant Spec: R23F
protein stability index: 2.01

Variant Spec: Q10N
protein stability index: 1.95

Variant Spec: R20H
protein stability index: 1.72

Variant Spec: Y15Q
protein stability index: 2.56

Variant Spec: F16Q
protein stability index: 2.39

Variant Spec: D19R
protein stability index: 1.9

Variant Spec: N12K
protein stability index: 2.04

Variant Spec: S3L
protein stability index: 1.08

Variant Spec: L6C
protein stability index: 1.53

Variant Spec: Q10C
protein stability index: 2.6

Variant Spec: R23A
protein stability index: 1.73

Variant Spec: R23I
protein stability index: 1.69

Variant Spec: P14H
protein stability index: 1.67

Variant Spec: S18V
protein stability index: 1.25

Variant Spec: L6A
protein stability index: 2.68

Variant Spec: K22I
protein stability index: 1.81
